ASSAY_SYSTEM: UniProtKB P41968
Sequence (P41968 whole entry): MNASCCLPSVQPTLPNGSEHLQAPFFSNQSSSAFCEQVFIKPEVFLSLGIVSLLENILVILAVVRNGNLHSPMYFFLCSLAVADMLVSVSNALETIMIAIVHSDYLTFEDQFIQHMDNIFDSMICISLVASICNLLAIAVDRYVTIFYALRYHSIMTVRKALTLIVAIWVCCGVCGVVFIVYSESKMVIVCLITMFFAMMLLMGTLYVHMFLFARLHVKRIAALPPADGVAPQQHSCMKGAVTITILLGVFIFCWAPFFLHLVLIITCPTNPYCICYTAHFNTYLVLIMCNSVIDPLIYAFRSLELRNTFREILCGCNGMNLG
METHOD: In vitro agonist potency was evaluated in HEK293 cells transfected with human melanocortin receptor (hMC3R)
pEC50: −log10 of the molar value.
READOUT_KIND: pEC50

Could you share what pEC50 was measured for N=C(N)NCCC[C@H](NC(=O)[C@H](Cc1ccccc1)NC(=O)[C@H](Cc1cnc[nH]1)NC(=O)C(N)=O)C(=O)N[C@@H](Cc1c[nH]c2ccccc12)C(N)=O , tested on UniProtKB P41968?
7.24

Could you share what pEC50 was measured for N=C(N)NCCC[C@H](NC(=O)[C@H](Cc1ccccc1)NC(=O)[C@@H](N)Cc1cnc[nH]1)C(=O)N[C@@H](Cc1c[nH]c2ccccc12)C(N)=O , tested on UniProtKB P41968?
6.46

Could you share what pEC50 was measured for N=C(N)NCCC[C@H](NC(=O)[C@H](Cc1ccccc1)NC(=O)[C@H](Cc1c[nH]cn1)NC(=O)C(O)Cc1ccccc1)C(=O)N[C@@H](Cc1c[nH]c2ccccc12)C(N)=O (stereo partly specified) , tested on UniProtKB P41968?
7.39

Could you share what pEC50 was measured for COCC(=O)N[C@@H](Cc1cnc[nH]1)C(=O)N[C@@H](Cc1ccccc1)C(=O)N[C@@H](CCCNC(=N)N)C(=O)N[C@@H](Cc1c[nH]c2ccccc12)C(N)=O , tested on UniProtKB P41968?
6.24

(1) CCC(=O)N[C@@H](Cc1c[nH]cn1)C(=O)N[C@@H](Cc1ccccc1)C(=O)N[C@@H](CCCN=C(N)N)C(=O)N[C@@H](Cc1c[nH]c2ccccc12)C(N)=O
(2) N=C(N)NCCC[C@H](NC(=O)[C@H](Cc1ccccc1)NC(=O)[C@H](Cc1cnc[nH]1)NC(=O)C1CC1)C(=O)N[C@@H](Cc1c[nH]c2ccccc12)C(N)=O
Just curious, which one has the larger pEC50 reading, 1 or 2 ? State the label of the item chosen.
2

---

ASSAY_SYSTEM: Melanocortin receptor 4 (Homo sapiens, UniProt P32245)
Sequence (P32245 whole entry): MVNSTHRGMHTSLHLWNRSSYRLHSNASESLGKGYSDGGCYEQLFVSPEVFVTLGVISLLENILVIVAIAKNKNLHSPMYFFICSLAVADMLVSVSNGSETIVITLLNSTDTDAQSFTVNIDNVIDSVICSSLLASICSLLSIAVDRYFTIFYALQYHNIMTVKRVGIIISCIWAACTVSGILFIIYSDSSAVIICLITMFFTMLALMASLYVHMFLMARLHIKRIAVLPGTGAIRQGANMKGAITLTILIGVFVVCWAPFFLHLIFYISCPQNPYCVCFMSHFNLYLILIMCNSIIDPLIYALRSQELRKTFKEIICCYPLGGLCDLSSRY
METHOD: In vitro agonist potency was evaluated in HEK293 cells transfected with human melanocortin receptor (hMC4R)
pEC50: −log10 of the molar value.
READOUT_KIND: pEC50

Examples from the recorded data:
// returns reported pEC50 for input CCCCC(=O)N[C@@H](Cc1cnc[nH]1)C(=O)N[C@@H](Cc1ccccc1)C(=O)N[C@@H](CCCNC(=N)N)C(=O)N[C@@H](Cc1c[nH]c2ccccc12)C(N)=O
7.58

// returns reported pEC50 for input CSCC(=O)N[C@@H](Cc1cnc[nH]1)C(=O)N[C@@H](Cc1ccccc1)C(=O)N[C@@H](CCCNC(=N)N)C(=O)N[C@@H](Cc1c[nH]c2ccccc12)C(N)=O
7.39

// returns reported pEC50 for input N=C(N)NCCC[C@H](NC(=O)[C@H](Cc1ccccc1)NC(=O)[C@H](Cc1c[nH]cn1)NC(=O)CC(F)(F)F)C(=O)N[C@@H](Cc1c[nH]c2ccccc12)C(N)=O
7.65

// returns reported pEC50 for input N=C(N)NCCC[C@H](NC(=O)[C@H](Cc1ccccc1)NC(=O)[C@H](Cc1c[nH]cn1)NC(=O)COc1ccc(Cl)cc1)C(=O)N[C@@H](Cc1c[nH]c2ccccc12)C(N)=O
7.94

// returns reported pEC50 for input CCC(=O)N[C@@H](Cc1c[nH]cn1)C(=O)N[C@@H](Cc1ccccc1)C(=O)N[C@@H](CCCN=C(N)N)C(=O)N[C@@H](Cc1c[nH]c2ccccc12)C(N)=O
7.41

// returns reported pEC50 for input N=C(N)NCCC[C@H](NC(=O)[C@H](Cc1ccccc1)NC(=O)[C@H](Cc1c[nH]cn1)NC(=O)c1ccccc1)C(=O)N[C@@H](Cc1c[nH]c2ccccc12)C(N)=O
7.55

// returns reported pEC50 for input N=C(N)NCCC[C@H](NC(=O)[C@H](Cc1ccccc1)NC(=O)[C@@H](N)Cc1cnc[nH]1)C(=O)N[C@@H](Cc1c[nH]c2ccccc12)C(N)=O
7.53

// returns reported pEC50 for input N=C(N)NCCC[C@H](NC(=O)[C@H](Cc1ccccc1)NC(=O)[C@H](Cc1cnc[nH]1)NC(=O)Cc1ccc(Cl)cc1)C(=O)N[C@@H](Cc1c[nH]c2ccccc12)C(N)=O
8.12

(a) CCCC(=O)N[C@@H](Cc1cnc[nH]1)C(=O)N[C@@H](Cc1ccccc1)C(=O)N[C@@H](CCCNC(=N)N)C(=O)N[C@@H](Cc1c[nH]c2ccccc12)C(N)=O
(b) CS(=O)(=O)N[C@@H](Cc1c[nH]cn1)C(=O)N[C@@H](Cc1ccccc1)C(=O)N[C@@H](CCCN=C(N)N)C(=O)N[C@@H](Cc1c[nH]c2ccccc12)C(N)=O
Just curious, which one has the larger pEC50 reading, a or b ? State the label of the item chosen.
b
(b: 7.67, a: 7.41)

---

ASSAY_SYSTEM: Melanocyte-stimulating hormone receptor (Homo sapiens, UniProt Q01726)
Sequence (Q01726 whole entry): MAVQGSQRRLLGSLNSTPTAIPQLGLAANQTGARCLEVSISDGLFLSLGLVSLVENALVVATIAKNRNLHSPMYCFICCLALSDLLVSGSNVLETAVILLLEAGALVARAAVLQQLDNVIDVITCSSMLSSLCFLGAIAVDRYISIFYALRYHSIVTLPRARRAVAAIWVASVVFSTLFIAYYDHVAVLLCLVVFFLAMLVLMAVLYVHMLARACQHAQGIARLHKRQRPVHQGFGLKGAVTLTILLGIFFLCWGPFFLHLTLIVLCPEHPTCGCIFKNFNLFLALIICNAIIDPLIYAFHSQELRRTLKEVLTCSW
METHOD: In vitro agonist potency was evaluated in HEK293 cells transfected with human melanocortin receptor (hMC1R)
Format: functional, cell-based
READOUT_KIND: EC50 (nM)

Examples from the recorded data:
// returns reported EC50 for input N=C(N)NCCC[C@H](NC(=O)[C@H](Cc1ccccc1)NC(=O)[C@H](Cc1c[nH]cn1)NC(=O)CC(F)(F)F)C(=O)N[C@@H](Cc1c[nH]c2ccccc12)C(N)=O
6.5

// returns reported EC50 for input CC(C)C(=O)N[C@@H](Cc1cnc[nH]1)C(=O)N[C@@H](Cc1ccccc1)C(=O)N[C@@H](CCCNC(=N)N)C(=O)N[C@@H](Cc1c[nH]c2ccccc12)C(N)=O
7

// returns reported EC50 for input N=C(N)NCCC[C@H](NC(=O)[C@H](Cc1ccccc1)NC(=O)[C@@H](N)Cc1cnc[nH]1)C(=O)N[C@@H](Cc1c[nH]c2ccccc12)C(N)=O
31.8

(a) CCC(=O)N[C@@H](Cc1c[nH]cn1)C(=O)N[C@@H](Cc1ccccc1)C(=O)N[C@@H](CCCN=C(N)N)C(=O)N[C@@H](Cc1c[nH]c2ccccc12)C(N)=O
(b) CS(=O)(=O)N[C@@H](Cc1c[nH]cn1)C(=O)N[C@@H](Cc1ccccc1)C(=O)N[C@@H](CCCN=C(N)N)C(=O)N[C@@H](Cc1c[nH]c2ccccc12)C(N)=O
(c) N=C(N)NCCC[C@H](NC(=O)[C@H](Cc1ccccc1)NC(=O)[C@H](Cc1cnc[nH]1)NC(=O)C1CC1)C(=O)N[C@@H](Cc1c[nH]c2ccccc12)C(N)=O
// sort entries: EC50, high to low # list labels per requested ordering
b, a, c
(b: 88 nM, a: 7.5 nM, c: 3.5 nM)

---

ASSAY_SYSTEM: Melanocyte-stimulating hormone receptor (Homo sapiens, UniProt Q01726)
METHOD: In vitro agonist potency was evaluated in HEK293 cells transfected with human melanocortin receptor (hMC1R)
pEC50: −log10 of the molar value.
READOUT_KIND: pEC50

// returns reported pEC50 for input CC(C)(C)C(=O)N[C@@H](Cc1cnc[nH]1)C(=O)N[C@@H](Cc1ccccc1)C(=O)N[C@@H](CCCNC(=N)N)C(=O)N[C@@H](Cc1c[nH]c2ccccc12)C(N)=O
8.30

// returns reported pEC50 for input N=C(N)NCCC[C@H](NC(=O)[C@H](Cc1ccccc1)NC(=O)[C@H](Cc1c[nH]cn1)NC(=O)C(O)Cc1ccccc1)C(=O)N[C@@H](Cc1c[nH]c2ccccc12)C(N)=O (stereo partly specified)
8.10

// returns reported pEC50 for input N=C(N)NCCC[C@H](NC(=O)[C@H](Cc1ccccc1)NC(=O)[C@H](Cc1c[nH]cn1)NC(=O)CO)C(=O)N[C@@H](Cc1c[nH]c2ccccc12)C(N)=O
8.15

// returns reported pEC50 for input N=C(N)NCCC[C@H](NC(=O)[C@H](Cc1ccccc1)NC(=O)[C@H](Cc1cnc[nH]1)NC(=O)C(N)=O)C(=O)N[C@@H](Cc1c[nH]c2ccccc12)C(N)=O
8.15

(I) N=C(N)NCCC[C@H](NC(=O)[C@H](Cc1ccccc1)NC(=O)[C@H](Cc1c[nH]cn1)NC(=O)Cc1ccccc1)C(=O)N[C@@H](Cc1c[nH]c2ccccc12)C(N)=O
(II) CSCC(=O)N[C@@H](Cc1cnc[nH]1)C(=O)N[C@@H](Cc1ccccc1)C(=O)N[C@@H](CCCNC(=N)N)C(=O)N[C@@H](Cc1c[nH]c2ccccc12)C(N)=O
# min-compare on pEC50 between I and II State the label of the item chosen.
II

---

ASSAY_SYSTEM: Melanocyte-stimulating hormone receptor (Homo sapiens)
pKi: −log10 of the molar value.
READOUT_KIND: pKi

Could you share what pKi was measured for N=C(N)NCCC[C@H](NC(=O)[C@H](Cc1ccccc1)NC(=O)[C@H](Cc1cnc[nH]1)NC(=O)CCCO)C(=O)N[C@@H](Cc1c[nH]c2ccccc12)C(N)=O , tested on Melanocyte-stimulating hormone receptor (Homo sapiens)?
7.47

Could you share what pKi was measured for CCC(=O)N[C@@H](Cc1c[nH]cn1)C(=O)N[C@@H](Cc1ccccc1)C(=O)N[C@@H](CCCN=C(N)N)C(=O)N[C@@H](Cc1c[nH]c2ccccc12)C(N)=O , tested on Melanocyte-stimulating hormone receptor (Homo sapiens)?
7.32

Could you share what pKi was measured for N=C(N)NCCC[C@H](NC(=O)[C@H](Cc1ccccc1)NC(=O)[C@@H](N)Cc1cnc[nH]1)C(=O)N[C@@H](Cc1c[nH]c2ccccc12)C(N)=O , tested on Melanocyte-stimulating hormone receptor (Homo sapiens)?
7.29
